Reference source for all entries: patent US6858707B1

Task for the reader: assign each of the following molecules its reported HR titer.
# Tested on: tobacco (Nicotiana tabacum v. Xanthi) leaves
# Procedure Text: Induction of HR in tobacco by hrpN truncated proteins
# Assay type: in vivo
# Conditions Used: large scale purified protein; concentration down to which HR is elicited in tobacco; — = no HR
Just the number in µg/mL, nothing appended.

Query (molecule): Fragment 19: amino acids 137-204 of SEQ ID NO: 23, internal fragment (protein, listed as Erwinia amylovora) STSQNDDSTSGTDSTSDSSDPMQQLLKMFSEIMQSLFGDGQDGTQGSSSGGKQPTEGEQNAYKKGVTD ; field requested: HR titer 3.5

Quick one: HR titer of Fragment 13: amino acids 76-209 of SEQ ID NO: 23, internal fragment (protein, listed as Erwinia amylovora) MGGGLGGGLGNGLGGSGGLGEGLSNALNDMLGGSLNTLGSKGGNNTTSTTNSPLDQALGINSTSQNDDSTSGTDSTSDSSDPMQQLLKMFSEIMQSLFGDGQDGTQGSSSGGKQPTEGEQNAYKKGVTDALSGL ? 5

Quick check: HR titer of Fragment 9: amino acids 1-104 of SEQ ID NO: 23, N-terminal fragment (protein, listed as Erwinia amylovora) MSLNTSGLGASTMQISIGGAGGNNGLLGTSRQNAGLGGNSALGLGGGNQNDTVNQLAGLLTGMMMMMSMMGGGGLMGGGLGGGLGNGLGGSGGLGEGLSNALND ? 3

Fill in: HR titer of Fragment 10: amino acids 1-168 of SEQ ID NO: 23, N-terminal fragment (protein, listed as Erwinia amylovora) MSLNTSGLGASTMQISIGGAGGNNGLLGTSRQNAGLGGNSALGLGGGNQNDTVNQLAGLLTGMMMMMSMMGGGGLMGGGLGGGLGNGLGGSGGLGEGLSNALNDMLGGSLNTLGSKGGNNTTSTTNSPLDQALGINSTSQNDDSTSGTDSTSDSSDPMQQLLKMFSEI is ___ 1
